- system: NaV1.7 (Homo sapiens (Human), UniProt Q15858)
- Sequence (Q15858 whole entry): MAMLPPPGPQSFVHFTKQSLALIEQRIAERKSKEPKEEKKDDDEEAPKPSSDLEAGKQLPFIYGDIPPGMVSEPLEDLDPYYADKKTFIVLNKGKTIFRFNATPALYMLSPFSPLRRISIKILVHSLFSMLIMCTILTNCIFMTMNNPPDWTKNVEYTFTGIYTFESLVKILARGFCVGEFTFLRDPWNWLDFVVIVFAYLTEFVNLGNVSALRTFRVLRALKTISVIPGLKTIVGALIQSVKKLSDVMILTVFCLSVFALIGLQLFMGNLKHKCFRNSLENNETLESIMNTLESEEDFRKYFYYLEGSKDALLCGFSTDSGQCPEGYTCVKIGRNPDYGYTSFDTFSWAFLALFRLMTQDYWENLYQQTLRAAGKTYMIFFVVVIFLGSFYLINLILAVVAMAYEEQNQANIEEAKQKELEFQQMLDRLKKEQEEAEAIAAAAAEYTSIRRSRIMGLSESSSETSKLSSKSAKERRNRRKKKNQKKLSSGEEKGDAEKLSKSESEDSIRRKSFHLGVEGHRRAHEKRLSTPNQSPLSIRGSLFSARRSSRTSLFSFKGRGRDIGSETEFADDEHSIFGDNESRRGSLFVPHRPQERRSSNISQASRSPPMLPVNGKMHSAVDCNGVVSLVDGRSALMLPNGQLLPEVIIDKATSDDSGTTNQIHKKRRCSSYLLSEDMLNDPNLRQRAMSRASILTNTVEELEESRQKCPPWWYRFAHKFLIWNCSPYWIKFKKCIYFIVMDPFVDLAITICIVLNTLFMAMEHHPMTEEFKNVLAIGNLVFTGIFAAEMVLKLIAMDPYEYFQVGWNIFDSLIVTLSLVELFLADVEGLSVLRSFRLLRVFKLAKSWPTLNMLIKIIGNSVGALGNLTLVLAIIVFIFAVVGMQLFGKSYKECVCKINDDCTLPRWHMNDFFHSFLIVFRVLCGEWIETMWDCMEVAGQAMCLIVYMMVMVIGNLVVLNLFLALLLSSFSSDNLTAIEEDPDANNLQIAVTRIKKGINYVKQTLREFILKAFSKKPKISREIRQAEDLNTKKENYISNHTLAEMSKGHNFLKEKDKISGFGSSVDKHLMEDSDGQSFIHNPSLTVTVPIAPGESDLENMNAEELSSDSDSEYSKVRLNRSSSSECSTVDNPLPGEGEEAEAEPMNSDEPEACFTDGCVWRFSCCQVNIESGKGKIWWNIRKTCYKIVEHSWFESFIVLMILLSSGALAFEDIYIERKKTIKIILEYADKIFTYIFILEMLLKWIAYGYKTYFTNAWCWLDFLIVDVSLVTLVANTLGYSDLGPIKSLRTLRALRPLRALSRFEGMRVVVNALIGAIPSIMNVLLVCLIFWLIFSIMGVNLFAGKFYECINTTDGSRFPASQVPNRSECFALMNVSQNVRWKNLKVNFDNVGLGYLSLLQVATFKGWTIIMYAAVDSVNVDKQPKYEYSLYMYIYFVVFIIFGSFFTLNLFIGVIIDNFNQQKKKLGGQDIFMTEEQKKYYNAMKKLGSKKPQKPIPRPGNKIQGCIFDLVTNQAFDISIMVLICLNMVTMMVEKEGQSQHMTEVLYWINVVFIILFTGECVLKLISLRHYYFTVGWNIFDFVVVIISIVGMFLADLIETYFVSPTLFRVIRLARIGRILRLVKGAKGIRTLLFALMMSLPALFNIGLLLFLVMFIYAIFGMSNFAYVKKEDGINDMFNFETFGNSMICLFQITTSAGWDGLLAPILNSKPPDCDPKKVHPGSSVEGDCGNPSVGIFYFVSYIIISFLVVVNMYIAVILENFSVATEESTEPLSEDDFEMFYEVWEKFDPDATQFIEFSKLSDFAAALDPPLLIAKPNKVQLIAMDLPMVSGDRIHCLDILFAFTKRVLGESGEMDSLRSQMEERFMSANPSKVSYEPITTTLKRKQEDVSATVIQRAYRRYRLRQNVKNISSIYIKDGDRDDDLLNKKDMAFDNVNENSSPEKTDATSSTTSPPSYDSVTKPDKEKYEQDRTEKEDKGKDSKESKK
- experiment-notes: NaV1.7 IC50 of Table 1 (IonWorks Barracuda population patch clamp or ligand binding assay; table does not say which)
- condition-description: HEK 293 cells expressing NaV1.7
// NB: equality with 40 nM counts as condition not met; only IC50 strictly below is condition met

> print(dat)
                                    compound     assigned.class
 1  O=S(=O)(Nc1nccs1)c1cc(Cl)c(NCC2CCC(N3CCOCC3)CC2)cc1F (stereo not drawn)      condition met
 2  NC1CCC(COc2cc(F)c(S(=O)(=O)Nc3ncns3)cc2F)(Cc2ccc(Cl)c(F)c2)CC1 (single isomer, unassigned) [Example 62]  condition not met
 3  O=S(=O)(Nc1nccs1)c1cc(Cl)c(NCC2CNCCO2)cc1F (stereo not drawn)  condition not met
 4  NC1(CCNc2cc(F)c(S(=O)(=O)Nc3nccs3)cc2Cl)CCCCC1  condition not met
 5  COCCN1CCCC1CNc1cc(F)c(S(=O)(=O)Nc2nccs2)cc1Cl (stereo not drawn)  condition not met
 6  O=S(=O)(Nc1nccs1)c1cc(Cl)c(NCC2CCC(N3CCC3)CC2)cc1F (stereo not drawn)  condition not met
 7  NC1CCC(COc2cc(F)c(S(=O)(=O)Nc3ncns3)cc2F)(Cc2ccc(Cl)c(F)c2)CC1 (single isomer, unassigned) [Example 61]  condition not met
 8  O=S(=O)(Nc1nccs1)c1cc(Cl)c(NCC2(CN3CCOCC3)CC2)cc1F  condition not met
 9  CNC1CCC(COc2cc(F)c(S(=O)(=O)Nc3ncns3)cc2F)(Cc2ccc(Cl)c(F)c2)CC1 (stereo not drawn)  condition not met
10  CN1C(C)(C)CC(Nc2cc(F)c(S(=O)(=O)Nc3nccs3)cc2Cl)CC1(C)C  condition not met
11  O=S(=O)(Nc1ncns1)c1cc(F)c(OCCC2(c3ccc(Cl)c(F)c3)CCNCC2)cc1F  condition not met
12  O=S(=O)(Nc1ncns1)c1cc(F)c(OCCC2(c3ccccc3)CCC(O)CC2)cc1F (stereo not drawn)  condition not met
13  N[C@H]1CC[C@@H](CNc2cc(F)c(S(=O)(=O)Nc3ncns3)cc2Cl)CC1      condition met
14  O=S(=O)(Nc1nccs1)c1cc(Cl)c(NC[C@@H]2CCCNC2)cc1F  condition not met
15  O=S(=O)(Nc1nccs1)c1cc(Cl)c(NCCC2(O)CCCC2)cc1F  condition not met
16  O=S(=O)(Nc1nccs1)c1cc(Cl)c(NCCC2CCCO2)cc1F (stereo not drawn)  condition not met
17  NC1CCCC1CNc1cc(F)c(S(=O)(=O)Nc2nccs2)cc1Cl (stereo not drawn)      condition met
18  NC1CCC(CCOc2cc(F)c(S(=O)(=O)Nc3ncns3)cc2F)(c2ccccc2)CC1 (single isomer, unassigned) [Example 49]      condition met
19  O=S(=O)(Nc1nccs1)c1cc(Cl)c(NCC2CNC2)cc1F  condition not met
20  O=S(=O)(Nc1ncns1)c1cc(F)c(OCC2(Cc3ccc(Cl)c(F)c3)CCC(O)CC2)cc1F (stereo not drawn)  condition not met
21  O=S(=O)(Nc1nccs1)c1cc(Cl)c(NCCC2CCCNC2)cc1F (stereo not drawn)      condition met
22  O=S(=O)(Nc1nccs1)c1cc(Cl)c(NCCC2CNC2)cc1F      condition met
23  NCC1CCCC(CNc2cc(F)c(S(=O)(=O)Nc3nccs3)cc2Cl)C1 (stereo not drawn)      condition met
24  CC1CC(C)(C)C(CNc2cc(F)c(S(=O)(=O)Nc3nccs3)cc2Cl)C1N (stereo not drawn)      condition met
25  O=S(=O)(Nc1nccs1)c1cc(Cl)c(N2CCCC(C3CCNCC3)C2)cc1F (stereo not drawn)  condition not met
26  O=S(=O)(Nc1nccs1)c1cc(Cl)c(NCC2(CN3CCCC3)CC2)cc1F      condition met
27  O=S(=O)(Nc1nccs1)c1cc(Cl)c(NCCC2CCNC2)cc1F (stereo not drawn)      condition met
28  CN1CCC(CCNc2cc(F)c(S(=O)(=O)Nc3nccs3)cc2Cl)CC1  condition not met
29  NC1CCC(CCOc2cc(F)c(S(=O)(=O)Nc3ncns3)cc2F)(c2ccccc2)CC1 (single isomer, unassigned) [Example 50]  condition not met
30  CC1(CCOc2cc(F)c(S(=O)(=O)Nc3ncns3)cc2F)CCC(N)CC1 (single isomer, unassigned) [Example 56]  condition not met

###

- system: UniProt:Q15858
- experiment-notes: NaV1.7 IC50 of Table 1 (IonWorks Barracuda population patch clamp or ligand binding assay; table does not say which)
- condition-description: HEK 293 cells expressing NaV1.7
// NB: equality with 600 nM counts as n; only IC50 strictly below is y

> print(dat)
                                   compound  assigned.class
1  N[C@H]1CC[C@H](CNc2cc(F)c(S(=O)(=O)Nc3nccs3)cc2Cl)CC1               y
2  N[C@H]1CC[C@@H](CNc2cc(F)c(S(=O)(=O)Nc3nccs3)cc2Cl)CC1               y
3  COCC1CCN(c2cc(F)c(S(=O)(=O)Nc3nccs3)cc2Cl)C1 (centres unmarked)               y
4  O=S(=O)(Nc1ncns1)c1cc(Cl)c(OCCC2(c3ccc(Cl)c(F)c3)CCNCC2)cc1F               y
5  O=S(=O)(Nc1nccs1)c1cc(Cl)c(N2CCC(CO)C2)cc1F (centres unmarked)               n

###

- system: UniProtKB Q15858
- experiment-notes: NaV1.7 IC50 of Table 1 (IonWorks Barracuda population patch clamp or ligand binding assay; table does not say which)
- condition-description: HEK 293 cells expressing NaV1.7
// NB: equality with 70 nM counts as no (0); only IC50 strictly below is yes (1)

> print(dat)
                                   compound  assigned.class
1  O=S(=O)(Nc1ncns1)c1cc(F)c(OCCC2(c3ccc(Cl)cc3)CCNCC2)cc1F          no (0)
2  CNC1CCC(CNc2cc(F)c(S(=O)(=O)Nc3nccs3)cc2Cl)CC1 (stereo not drawn)         yes (1)
3  O=S(=O)(Nc1nccs1)c1cc(Cl)c(N[C@H]2CC[C@@H](O)CC2)cc1F          no (0)
4  CC1(CCOc2cc(F)c(S(=O)(=O)Nc3ncns3)cc2F)CCC(N)CC1 (single isomer, unassigned) [Example 57]          no (0)
5  O=S(=O)(Nc1nccs1)c1cc(Cl)c(NC2CCC3CNCC32)cc1F (stereo not drawn)          no (0)
6  NC1CCC(CCOc2cc(F)c(S(=O)(=O)Nc3ncns3)cc2F)CC1 (stereo not drawn)          no (0)
7  NC1CCCC(Nc2cc(F)c(S(=O)(=O)Nc3nccs3)cc2Cl)C1 (stereo not drawn)         yes (1)
8  O=S(=O)(Nc1nccs1)c1cc(Cl)c(N2CCC3CCNCC3C2)cc1F (stereo not drawn)          no (0)

###

- system: NaV1.7 (Homo sapiens (Human), UniProt Q15858)
- experiment-notes: NaV1.7 IC50 of Table 1 (IonWorks Barracuda population patch clamp or ligand binding assay; table does not say which)
- condition-description: HEK 293 cells expressing NaV1.7
pIC50: −log10 of the molar value.
measurement-name: pIC50

> print(dat)
                                   compound  value.measured
1  O=S(=O)(Nc1ncns1)c1cc(Cl)c(OCCC2(c3ccc(Cl)cc3)CCNCC2)cc1F [Example 45]            7.41
2  CN1CCN(C2CCC(CNc3cc(F)c(S(=O)(=O)Nc4nccs4)cc3Cl)CC2)CC1 (stereo not drawn) [Example 27]            7.40
3  O=S(=O)(Nc1nccs1)c1cc(Cl)c(NCCC2CCCCN2O)cc1F (stereo not drawn) [Example 75]            7.39
